Consider the following molecules; for each one, report its RP-LC retention time.
Assay: gradient 5% acetonitrile 3 min, to 50% in 2 min, to 85% in 15 min, held 3 min, 100 µL/min
Conditions: column: Zorbax Extend-C18 2.1 x 50 mm; eluents: water / acetonitrile, 0.1% formic acid
Give bare numbers, in s.

[
  {
    "structure_smiles_string": "c1cn(Cc2nc(-c3ccc4c(c3)OCO4)no2)cn1",
    "obs_value": 605
  },
  {
    "structure_smiles_string": "CCCNC(=O)CC1CCN(C(=O)c2[nH]c(C)c(C(=O)OC(C)C)c2C)CC1",
    "obs_value": 724
  },
  {
    "structure_smiles_string": "COc1cc(-c2noc(Cn3ccnc3C)n2)cc(OC)c1OC",
    "obs_value": 596
  },
  {
    "structure_smiles_string": "Cc1ccc(NC(=O)Cn2c(C)nc3onc(C)c3c2=O)c(Cl)c1",
    "obs_value": 835
  }
]

Consider the additional molecule presented here.
Lookup: Param item = CCOC(=O)CCC(=O)Nc1cc(C)nn1-c1nc(-c2ccc(F)cc2)cs1 ; retrieve measured RP-LC retention time.
Found: 1100

---

Assay: gradient 5% acetonitrile 3 min, to 50% in 2 min, to 85% in 15 min, held 3 min, 100 µL/min
Conditions: column: Zorbax Extend-C18 2.1 x 50 mm; eluents: water / acetonitrile, 0.1% formic acid
Note to self: values exactly at 700 s are MET. So RP-LC retention time at or above 700 s is MET, below is NOT MET.

[
  {
    "molecule": "CCc1nc2cc(N3CCC(C(=O)Nc4ccccc4OC)CC3)cnc2nc1CC",
    "category": "MET"
  }
]

Lookup: Decide: RP-LC retention time of CN(CCCNC(=O)C1CCc2nc(N3CCCCC3)ncc2C1)c1ccccc1 (stereo not given) >= 700 s?
Found: MET

Lookup: Decide: RP-LC retention time of Cc1csc(-c2cc(S(=O)(=O)N3CCN(CC(C)C)CC3)cn2CC(=O)N2CCCCC2)n1 >= 700 s?
Found: MET

Lookup: Decide: RP-LC retention time of O=C(CCCN1CCC2(CC1)C(=O)NCN2c1ccccc1)c1ccc(F)cc1 >= 700 s?
Found: MET

Lookup: Decide: RP-LC retention time of COC(=O)c1cc2c(=O)n(-c3ccc(OC)cc3OC)ccc2nc1C >= 700 s?
Found: MET

---

Experiment: gradient 5% acetonitrile 3 min, to 50% in 2 min, to 85% in 15 min, held 3 min, 100 µL/min
Settings: column: Zorbax Extend-C18 2.1 x 50 mm; eluents: water / acetonitrile, 0.1% formic acid
Lab note: cut-off is 800 s. Strictly less in RP-LC retention time is Fulfilled. Exactly 800 s or more is Not fulfilled.

Recorded results for 4 compounds are shown here.
[
  {
    "compound": "Cc1ccc(CNC(=O)C2CCN(S(=O)(=O)c3c(C)[nH]c(C)c3C(=O)N3CCCC3)CC2)o1",
    "category": "Fulfilled"
  },
  {
    "compound": "CC(C)Cc1ccc(S(=O)(=O)N2C[C@@H](F)C[C@H]2C(=O)N2CCc3ccccc3C2)cc1",
    "category": "Not fulfilled"
  },
  {
    "compound": "CCN1CCN(C(=O)C2CCCN(S(=O)(=O)c3cc(-c4noc(C)n4)cs3)C2)CC1 (centres undefined)",
    "category": "Fulfilled"
  },
  {
    "compound": "CCc1ccc(NC(=O)Nc2ccc(NC(=O)N3CCC(C(=O)NC)CC3)cc2)cc1",
    "category": "Fulfilled"
  }
]

Lookup: Is RP-LC retention time of COc1ccc(Cl)cc1C(=O)NCCCOc1cccc2cccnc12 strictly below 800 s?
Found: Fulfilled

Lookup: Is RP-LC retention time of COc1ccccc1NC(=O)Nc1nc(CC(=O)NCc2ccco2)cs1 strictly below 800 s?
Found: Fulfilled

Lookup: Is RP-LC retention time of COc1ccc(N2C(=O)NC3CC2(C)Oc2ccc(OC)cc23)cc1 (centres undefined) strictly below 800 s?
Found: Fulfilled

Lookup: Is RP-LC retention time of CCc1noc(-c2nnn3c2COC(c2ccc(OC)cc2)C3)n1 (centres undefined) strictly below 800 s?
Found: Not fulfilled

Lookup: Is RP-LC retention time of CCc1nccn1Cc1noc(-c2ccco2)n1 strictly below 800 s?
Found: Fulfilled

Lookup: Is RP-LC retention time of COc1ccc(NC(=O)N2c3ccccc3CC2c2nc(C3CC3)no2)c(C)c1 (centres undefined) strictly below 800 s?
Found: Not fulfilled

Lookup: Is RP-LC retention time of CCc1ccccc1NC(=O)Cn1ncc2c(N3CCN(c4ccccn4)CC3)ncnc21 strictly below 800 s?
Found: Fulfilled

Lookup: Is RP-LC retention time of CCN(CC)C(=O)N1CC(Oc2ccc(-c3noc(COC)n3)cc2)C1 strictly below 800 s?
Found: Not fulfilled

Lookup: Is RP-LC retention time of O=C(C1CC(=O)N(c2ccc3c(c2)CCN3C(=O)C2CC2)C1)N1CCCCCC1 (centres undefined) strictly below 800 s?
Found: Fulfilled
